Entries and their Inhibition of ligand binding, Ser. 5-HT6 values follow.
# Tested Target: human recombinant serotonin (5-Hydroxytryptamine) 5-HT6 receptor (Homo sapiens, UniProt P50406)
# Construct: expressed in transfected cells; host or cells: human HeLa cells
# Sequence (P50406 whole entry): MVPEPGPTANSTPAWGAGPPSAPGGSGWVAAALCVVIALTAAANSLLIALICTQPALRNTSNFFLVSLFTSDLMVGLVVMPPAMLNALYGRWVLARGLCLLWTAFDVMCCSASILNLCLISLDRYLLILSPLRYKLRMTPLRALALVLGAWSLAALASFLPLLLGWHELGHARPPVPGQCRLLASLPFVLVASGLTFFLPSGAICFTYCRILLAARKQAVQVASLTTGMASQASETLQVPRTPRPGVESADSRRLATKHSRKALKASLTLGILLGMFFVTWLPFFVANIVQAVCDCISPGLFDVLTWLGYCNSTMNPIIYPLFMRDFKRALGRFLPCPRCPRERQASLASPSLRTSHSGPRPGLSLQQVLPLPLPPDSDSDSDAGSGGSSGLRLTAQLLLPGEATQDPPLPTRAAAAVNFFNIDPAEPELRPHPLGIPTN
# Assay Method Text: Serotonin 5-HT6 radioligand binding ([3H]LSD)
# Design: concentration or dose not given beside the values
# Reported Conditions: percent inhibition of specific binding
Outcome Measure: Inhibition of ligand binding, Ser. 5-HT6 (%)

> print(dat)
                                    molecule  units.text  recorded.number
 1  CN1CCc2c(c3ccccc3n2CCc2ccccn2)C1 [Compound 329]           %               15
 2  Cc1ccc2c(c1)c1c(n2CC(=O)N2CCN(C)CC2)CCN(C)C1 [Compound 459]           %              −10
 3  Cc1ccc2c(c1)c1c(n2CCc2ccc(C)nc2)C(Br)C(=O)N(C)C1 (centres unmarked) [Compound 232]           %               −7
 4  Cc1ccc2c(c1)c1c(n2CC(=O)N2CCc3ccccc3C2)CCN(C)C1 [Compound 398]           %               15
 5  Cc1ccc2c(c1)c1c(n2CCc2cccnc2)CCN(C)C1 [Compound 60]           %               91
 6  CCc1ccc(CCn2c3c(c4cc(Cl)ccc42)CN(C)CC3)cn1 [Compound 371]           %               88
 7  CC1CCCCN1C(=O)Cn1c2c(c3cc(Cl)ccc31)CN(C)CC2 (centres unmarked) [Compound 321]           %               15
 8  CN1CCc2c(c3cc(Cl)ccc3n2CCc2ccccn2)C1 [Compound 30]           %               90
 9  Cc1ccc(CCn2c3c(c4cc(Cl)ccc42)CN(C)CC3)cn1 [Compound 225]           %               81
10  Cc1ccc2c(c1)c1c(n2CC(=O)N2CCCCC2)CCN(C)C1 [Compound 395]           %                0
11  CN1CCc2c(c3cc(Cl)ccc3n2CC(=O)N2CCSCC2)C1 [Compound 239]           %                8
12  Cc1ccc(CCn2c3c(c4cc(C(F)(F)F)ccc42)CN(C)CC3)cn1 [Compound 53]           %               18
13  CN1CCc2c(c3cccc(Cl)c3n2CCc2ccccc2)C1 [Compound 83]           %              106
14  CN1CCc2c(c3cc(Cl)ccc3n2CC(=O)N2CCS(=O)(=O)CC2)C1 [Compound 295]           %               −1
15  CCc1ccc2c(c1)c1c(n2CCc2ccc(C(F)(F)F)nc2)CCN(C)C1 [Compound 358]           %               65
16  CN1CCc2c(c3cc(F)ccc3n2CCc2ccc(Cl)cc2)C1 [Compound 249]           %              101
17  CN1CCc2c(c3cc(Cl)ccc3n2CCC2CCCCC2)C1 [Compound 164]           %               99
